measurement-target: chemokine receptors on the surface of Jurkat cells
assay-method-text: biotinylated peptide binding to Jurkat cells
Ends that are not written are not given here.

[
  {
    "binder": "SYRRITSSKCPKEAV (also: biotinylated, position not given here) [biotinylated peptide 2(1-15)[MCP-1]]",
    "unit": "nM",
    "Kd": 3000
  }
]
